# EXPERIMENTAL TARGET: human MC3R (Homo sapiens)
# Construct: expressed in transfected cells; host or cells: HEK-293 cells stably expressing the GScAMP22F split-luciferase cAMP sensor (parent reporter line from Promega); MC3R clone generated in-house, G418 selection
# Sequence (P41968 whole entry): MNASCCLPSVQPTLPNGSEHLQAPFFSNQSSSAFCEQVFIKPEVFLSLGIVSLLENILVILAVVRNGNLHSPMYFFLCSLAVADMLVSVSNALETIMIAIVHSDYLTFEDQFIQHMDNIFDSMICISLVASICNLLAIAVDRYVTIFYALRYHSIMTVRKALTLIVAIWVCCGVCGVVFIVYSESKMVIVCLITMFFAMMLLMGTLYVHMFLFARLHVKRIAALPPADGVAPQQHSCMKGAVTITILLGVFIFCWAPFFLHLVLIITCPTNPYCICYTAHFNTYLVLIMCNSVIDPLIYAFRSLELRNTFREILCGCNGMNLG
# PROCEDURE DETAILS: split-luciferase cAMP sensor assay, agonist mode (measurement window 1), hMC3R
# Assay type: cell-based
# EXPERIMENTAL CONDITIONS: MC4R versus MC3R
Positions of bridges follow the written chain, without caps; N, C: chain ends. Non-standard residues stand in square brackets, D forms with d. Residues, ends and D or L forms follow the SMILES beside them. Cit = NC(=O)NCCC[C@H](N)C(=O)O; Nle = CCCC[C@H](N)C(=O)O
Entries and their MC4R selectivity vs MC3R values follow.

{"COMPOUND": "N=C(N)NCCC[C@@H]1NC(=O)[C@@H](Cc2ccccc2)NC(=O)[C@H](Cc2c[nH]cn2)NC(=O)CNC(=O)CSC[C@@H](C(N)=O)NC(=O)[C@H](Cc2ccccc2)NC1=O [CTX-1653] ({CH2CO}-GH[dF]RFC-NH2; thioether N-6)", "EXPERIMENTAL TARGET": "human MC3R (Homo sapiens)", "RESULT COMPARATOR": ">", "MC4R selectivity vs MC3R": 8}
{"COMPOUND": "CCCC[C@H](NC(=O)[C@H](CCCNC(=N)N)NC(C)=O)C(=O)N[C@H]1CSSC[C@@H](C(N)=O)NC(=O)[C@@H](Cc2c[nH]c3ccccc23)NC(=O)[C@H](CCCNC(=N)N)NC(=O)[C@@H](Cc2ccccc2)NC(=O)[C@H](CCCNC(N)=O)NC1=O [CTX-1608] (Ac-R[Nle]C[Cit][dF]R[dW]C-NH2; disulfide 3-8 (inferred))", "EXPERIMENTAL TARGET": "human MC3R (Homo sapiens)", "RESULT COMPARATOR": "=", "MC4R selectivity vs MC3R": 0.95}

Hello, the source for this data is patent US20240391954A1, in case you need it.
